Overview of reported clearance across a group of molecules:
test: Clearance in rat at 2 mg/kg, iv
Format: ADME, organism-based
Set-up: dose 2 mg/kg, route intravenous
experimental-parameters: in vivo
Supply the numeric figure in mL/min/kg, leaving out any unit text.

structure_smiles_string=O=C(O)/C=C/c1ccc(NC(=O)C2(NC(=O)c3ccc4c(C5CCCCC5)c5n(c4c3)CCCc3ncccc3-5)CCCC2)cc1 endpoint_value=7.2

// query Please give the documented clearance of O=C(O)/C=C/c1ccc(NC(=O)C2(NC(=O)c3ccc4c(C5CCCCC5)c5n(c4c3)CC(=O)Nc3cccnc3-5)CCCC2)cc1
// result 8.7

###

measured-target: RNA-directed RNA polymerase (Hepacivirus hominis, UniProt O39930, P495L)
Sequence (O39930 entry or part of it P495L): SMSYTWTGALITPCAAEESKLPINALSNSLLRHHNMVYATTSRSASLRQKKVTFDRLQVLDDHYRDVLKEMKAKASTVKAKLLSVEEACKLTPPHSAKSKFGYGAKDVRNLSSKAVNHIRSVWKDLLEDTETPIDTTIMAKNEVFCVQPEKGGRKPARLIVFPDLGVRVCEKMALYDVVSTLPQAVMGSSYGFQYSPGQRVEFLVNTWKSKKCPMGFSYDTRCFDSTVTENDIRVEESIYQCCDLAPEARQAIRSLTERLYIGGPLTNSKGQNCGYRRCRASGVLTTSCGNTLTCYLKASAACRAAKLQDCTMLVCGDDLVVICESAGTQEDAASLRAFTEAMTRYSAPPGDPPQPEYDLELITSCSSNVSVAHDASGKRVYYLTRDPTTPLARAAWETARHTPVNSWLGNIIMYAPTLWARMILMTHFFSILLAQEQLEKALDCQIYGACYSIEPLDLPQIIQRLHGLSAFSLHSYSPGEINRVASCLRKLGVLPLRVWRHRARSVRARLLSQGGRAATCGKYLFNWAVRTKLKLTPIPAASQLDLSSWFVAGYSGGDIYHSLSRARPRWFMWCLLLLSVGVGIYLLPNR
test: Inhibition of Hepatitis C virus NS5B RNA-dependent RNA polymerase P495L mutant
property: IC50 (µM)
Answer format: numeric, µM implied, no suffix.

Some compounds with recorded IC50:
structure_smiles_string=O=C(O)/C=C/c1ccc(NC(=O)C2(NC(=O)c3ccc4c(C5CCCCC5)c5n(c4c3)CC(=O)Nc3cccnc3-5)CCCC2)cc1 property=IC50 measurement_unit=µM endpoint_value=3.1
structure_smiles_string=Nc1nc2c(s1)CCCn1c-2c(C2CCCCC2)c2ccc(C(=O)NC3(C(=O)Nc4ccc(/C=C/C(=O)O)cc4)CCCC3)cc21 property=IC50 measurement_unit=µM endpoint_value=4.84
structure_smiles_string=O=C(O)/C=C/c1ccc(NC(=O)C2(NC(=O)c3ccc4c(C5CCCCC5)c5n(c4c3)CCCc3occc3-5)CCCC2)cc1 property=IC50 measurement_unit=µM endpoint_value=3.72
structure_smiles_string=O=C(O)/C=C/c1ccc(NC(=O)C2(NC(=O)c3ccc4c(C5CCCCC5)c5n(c4c3)CCCc3ncccc3-5)CCCC2)cc1 property=IC50 measurement_unit=µM endpoint_value=1.73
structure_smiles_string=O=C(O)/C=C/c1ccc(NC(=O)C2(NC(=O)c3ccc4c(C5CCCCC5)c5n(c4c3)CCCc3ocnc3-5)CCCC2)cc1 property=IC50 measurement_unit=µM endpoint_value=5.85

// query Specify IC50 for O=C(O)/C=C/c1ccc(NC(=O)C2(NC(=O)c3ccc4c(C5CCCCC5)c5n(c4c3)CCCc3ccccc3-5)CCCC2)cc1 , system RNA-directed RNA polymerase (Hepacivirus hominis, UniProt O39930, P495L).
// result 3.39

// query Given O=C(O)/C=C/c1ccc(NC(=O)C2(NC(=O)c3ccc4c(C5CCCCC5)c5n(c4c3)CCCc3nccnc3-5)CCCC2)cc1 , report its IC50 on RNA-directed RNA polymerase (Hepacivirus hominis, UniProt O39930, P495L).
// result 2.28

// query Enter recorded IC50 with RNA-directed RNA polymerase (Hepacivirus hominis, UniProt O39930, P495L) for O=C(O)/C=C/c1ccc(NC(=O)C2(NC(=O)c3ccc4c(C5CCCCC5)c5n(c4c3)CCOc3ncccc3-5)CCCC2)cc1 here.
// result 2.8

// query Find IC50 for Cc1nc2c(s1)CCCn1c-2c(C2CCCCC2)c2ccc(C(=O)NC3(C(=O)Nc4ccc(/C=C/C(=O)O)cc4)CCCC3)cc21 on RNA-directed RNA polymerase (Hepacivirus hominis, UniProt O39930, P495L) and write it down.
// result 5.1

Values compiled from ChEMBL document CHEMBL2016551.
